These data points were gathered from the supplement of paper PMC7125110.

B1: glmS ribozyme (parent)
chain: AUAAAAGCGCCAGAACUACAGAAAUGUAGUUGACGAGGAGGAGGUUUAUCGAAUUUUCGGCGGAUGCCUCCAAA

- Variants of: B1
- experimentSummary: self-cleavage kobs at 10000 uM GlcN6P; higher = faster cleavage; RNA array
- conditionsUsed: with glucosamine-6-phosphate
This sample holds only a part of the variants without activity.
self-cleavage kobs at 10000 uM GlcN6P by entry:
Your answer is read as s⁻¹, so omit the unit and give the number.

Study these solved cases before continuing.
G32U C58A :: 0.00102
A15U G29A :: 0.00142
C11A :: 0.000236
A15U C16G :: 0.000952
U30G C67A C70U :: 0.000369
A53U C67G :: 0.00224
C11U C71A :: 0.000354
A36U G37C C50U U57A U69G :: 4.81e-05

Sample G13U A42G U45A — what was its self-cleavage kobs at 10000 uM GlcN6P? 0.00104

Which self-cleavage kobs at 10000 uM GlcN6P is reported for this variant? A14G G44C C67U 0.00278

State the recorded self-cleavage kobs at 10000 uM GlcN6P for this entry: U56A U57A 0.00025
